B1: CPEB3 Ribozyme (parent)
chain: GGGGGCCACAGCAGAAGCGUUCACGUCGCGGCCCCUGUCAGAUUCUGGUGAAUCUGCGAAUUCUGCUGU

Variants of: B1
Assay: self-cleavage, relative activity (ratio to wild type); higher = more cleavage; co-transcriptional
Returns yes if the recorded self-cleavage is greater than or equal to 0.2, and no otherwise.

GGGGGCCACAGGAGAAGCGUUCACGUCGCGGCCCCUGUCAGCUUCUGGUGAAUCUGCGAAUUCUGCUGU [C12G A42C] : yes
GGGGGCCACAGCAGAAGCGUUCACGUCGCGGCCCCGGUCAGAUUCUGGUGAAUCUGCGGAUUCUGCUGU [U36G A59G] : yes
GGGGGCCACAGCAGAAGCGUUCACGACGCGGGCCCUGUCAGAUUCUGGUGAAUCUGCGAAUUCUGCUGU [U26A C32G] : yes
GGGGGCCACAGCAGAGGCGUUCACGUCGCGGCCCCUGUCAGAUUCUGGUGAAUCUGCGAAUUCUGUUGU [A16G C66U] : yes
GGGGGCCACAGCAGAAGCGUUCACGUCGCGGCCCCAGUCAGAUUCUGGUGAAUCCGCGAAUUCUGCUGU [U36A U55C] : no
GGGGGCAACAGCAGAAGCGUUCACUUCGCGGCCCCUGUCAGAUUCUGGUGAAUCUGCGAAUUCUGCUGU [C7A G25U] : no
GGGGGCCACAGCAGAAGCGUUCACGUCGCGGCCCCUGUCAGAUUCUGGUGAAACUGUGAAUUCUGCUGU [U53A C57U] : yes
GGUGGCCACAGCAGAAGCGUUCACGUCGCGGCCCCUGUCAGAUUCUGGUGAAACUGCGAAUUCUGCUGU [G3U U53A] : no

Does the reported self-cleavage for GGGGGCUACAGCAGAAGUGUUCACGUCGCGGCCCCUGUCAGAUUCUGGUGAAUCUGCGAAUUCUGCUGU [C7U C18U] fall at or above the 0.2 mark?
yes

Is self-cleavage at least 0.2? Consider GGGGGCCACAGCAAAAGCGUUCACGUCGCGGCCCCUGUCAGAUUCUGGUGAAUCUUCGAAUUCUGCUGU [G14A G56U]
yes

Evaluate CGGGGCCACAGCAGAAACGUUCACGUCGCGGCCCCUGUCAGAUUCUGGUGAAUCUGCGAAUUCUGCUGU [G1C G17A] : self-cleavage at minimum 0.2?
no

For this variant, is measured self-cleavage 0.2 or higher? GGGGGCCACAGCAGAAGCGUUGACGUCGCGGCCCGUGUCAGAUUCUGGUGAAUCUGCGAAUUCUGCUGU [C22G C35G]
yes
